biological target: UniProtKB Q72547; assay: Inhibition of HIV1 recombinant reverse transcriptase
pIC50: −log10 of the molar value.
# pIC50 per record follows
parameter-measured: pIC50

>>> df
                               entry_smiles       test_system  relational_operator  reported_value
0  COC(=O)CCCC=C(c1cc(C)c(OC)c(C(=O)OC)c1)c1cc(C)c(OC)c(C(=O)OC)c1  UniProtKB Q72547                    =            6.00
1  CONC(=O)c1cc(/C(=C\CCCC(=O)OC(C)(C)C)c2cc(C)c3oc(=O)n(C)c3c2)cc(C)c1OC  UniProtKB Q72547                    <            4.00
2  COC(=O)CCC/C=C(\c1cc(C)c(OC)c(C(=O)OC)c1)c1cc(C)c2oc(=O)n(C)c2c1  UniProtKB Q72547                    =            7.70
3  CONC(=O)CCC/C=C(\c1cc(C)c(OC)c(C(=O)NOC)c1)c1cc(C)c2oc(=O)n(C)c2c1  UniProtKB Q72547                    <            4.00

* * *

test: Cytotoxicity against mock-infected CEM-SS cells; assay type: cell-based; details: human
Quick rule for you: CC50 under 5 µM gets class 1, anything else gets class 0.

>>> print(df.to_string())
                               entry_smiles  qualitative_label
0  CO/N=C(\F)c1cc(/C(=C\CCCC(=O)OC)c2cc(C)c3oc(=O)n(C)c3c2)cc(C)c1OC            class 1
1  CO/N=C(\Cl)CCC/C=C(\c1cc(C)c(OC)c(/C(Cl)=N/OC)c1)c1cc(C)c2oc(=O)n(C)c2c1            class 1
2  CONC(=O)CCC/C=C(\c1cc(C)c(OC)c(C(=O)NOC)c1)c1cc(C)c2oc(=O)n(C)c2c1            class 0
3  CONC(=O)c1cc(/C(=C\CCCC(=O)OC(C)(C)C)c2cc(C)c3oc(=O)n(C)c3c2)cc(C)c1OC            class 0
4  COC(=O)CCCC=C(c1cc(C)c(OC)c(C(=O)OC)c1)c1cc(C)c(OC)c(C(=O)OC)c1            class 0
5  CO/N=C(\Br)CCC/C=C(\c1cc(C)c(OC)c(/C(Br)=N/OC)c1)c1cc(C)c2oc(=O)n(C)c2c1            class 1
6  CO/N=C(\F)c1cc(/C(=C\CCCc2nc(C)no2)c2cc(C)c3oc(=O)n(C)c3c2)cc(C)c1OC            class 1

* * *

Listing of entries alongside the reported IC50.
biological target: UniProt Q72547; experiment: Inhibition of HIV1 recombinant reverse transcriptase
parameter-measured: IC50 (nM)

                               entry_smiles  units_of_measure  reported_value
0  CO/N=C(\Cl)CCC/C=C(\c1cc(C)c(OC)c(/C(Cl)=N/OC)c1)c1cc(C)c2oc(=O)n(C)c2c1                nM             600
1  CO/N=C(\Br)CCC/C=C(\c1cc(C)c(OC)c(/C(Br)=N/OC)c1)c1cc(C)c2oc(=O)n(C)c2c1                nM             850
2  CO/N=C(\F)c1cc(/C(=C\CCCC(=O)OC)c2cc(C)c3oc(=O)n(C)c3c2)cc(C)c1OC                nM             550
3  CO/N=C(\F)c1cc(/C(=C\CCCc2nc(C)no2)c2cc(C)c3oc(=O)n(C)c3c2)cc(C)c1OC                nM             670
